The measurements presented in this section are drawn from patent US20190248900A1.

For each of the binders below, state its OD490.
Biological target: T1, M5
T1 construct: also called PD1 mutant M5
Experiment: ELISA, 1 ug/ml
Answers are plain numbers.

BINDER	METRIC NAME	RECORDED MEASUREMENT
PD1-49A2 (antibody, V domains shown, scFv-phage in the screening ELISA; whole IgG in the other assays; also called Parent 49A2) VH: QVQLVESGGGVVQPGRSLRLSCAASGFTFSSYAMHWVRQAPGKGLEWVAVISYDGSNKYYADSVKGRFTISRDNPKNTLYLQMNSLRAEDTAVYYCTTTTFDSWGRGTLVTVSS VL: DIVMTQSPLSLPVTPGEPASISCRSSQSLFDSDDGNTYLDWYLQKPGQSPQLLIYTLSHRASGVPDRFSGSGSGTDFTLKISRVEAEDVGIYYCLQRMGFPYTFGQGTKVEIK	OD490	1.2

List OD490 for every entry below, keeping the order given.
1. PD1-41C9 (antibody, V domains shown, scFv-phage in the screening ELISA; whole IgG in the other assays) VH: QMQLVESGGGVVQPGRSLRLSCAASGFTFSSYAMHWVRQAPGKGLEWVAVISYDGSNKYYADSVKGRFTISRDNSKNTLYLQMNRLRSEDTAVYYCTTTTFDSWGQGTLITVSS VL: DIVMTQTPLSLPVTPGEAASISCRSSQSLLDSEDGNTYLDWYLQKPGQSPQLLIYTLSHRASGVPDRFSGSGSGTDFTLKISRVAAEDVGLYYCLQRMGFPYTFGQGTKLDIK
2. PD1-52E8 (antibody, V domains shown, scFv-phage in the screening ELISA; whole IgG in the other assays) VH: QVQLVQSGGNLVQPGRSLRLSCAASGFTFDDYAMHWVRQAPGKGLEWVSGISWNSGTPGYADSVQGRFTISRDNAKNSLYLQMNSLRAEDTAVYYCARGHNYLDSSYYDYWGQGTLVTVSS VL: SYELTQPLSLSVAPGQTARITCSGDALSKEYSYWYQQKPGQAPVLVMYKDSERPSGIPERFSGSSSGTTVTLTISGVQAEDEADYYCQSVDSSDTSVVFGGGTKLTVL
3. PD1-45D6 (antibody, V domains shown, scFv-phage in the screening ELISA; whole IgG in the other assays) VH: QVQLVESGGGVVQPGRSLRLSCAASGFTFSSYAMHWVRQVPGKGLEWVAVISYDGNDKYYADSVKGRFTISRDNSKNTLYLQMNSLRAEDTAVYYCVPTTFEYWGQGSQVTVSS VL: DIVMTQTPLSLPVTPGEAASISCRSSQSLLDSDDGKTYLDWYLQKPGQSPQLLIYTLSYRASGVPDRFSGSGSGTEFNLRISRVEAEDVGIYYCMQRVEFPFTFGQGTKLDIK

2.3
0.5
3.6
